The values you see were collected from paper PMC9358669.

Give measured Mean (RFU/s) for each item. Keep answers brief.
target: Proteinase K (Parengyodontium album); construct: purchased Roche; assay: Proteinase K inhibition, fluorogenic substrate assay (Suc-Ala-Ala-Pro-Phe-AMC); format: biochemical, Tritirachium album; conditions: Proteinase K; inhibitor concentration 1.37174 nM; 40 min pre-incubation
Sequence (P06873 106-384): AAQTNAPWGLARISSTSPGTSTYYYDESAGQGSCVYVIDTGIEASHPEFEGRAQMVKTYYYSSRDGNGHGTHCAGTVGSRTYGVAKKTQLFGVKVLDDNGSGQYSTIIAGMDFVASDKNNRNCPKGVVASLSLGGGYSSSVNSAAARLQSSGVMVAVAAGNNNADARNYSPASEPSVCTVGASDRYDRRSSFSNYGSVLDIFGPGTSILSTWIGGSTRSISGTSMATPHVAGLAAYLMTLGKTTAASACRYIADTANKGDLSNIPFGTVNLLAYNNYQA
Numbers only, in RFU/s.

C/C=C1\NC(=O)[C@@H](NC(=O)[C@@H](NC(=O)[C@H](C)NC(=O)CCC)[C@@H](C)O)[C@@H](C)OC(=O)[C@H](C(C)C)NC(=O)[C@H](Cc2ccc(O)cc2)N(C)C(=O)[C@H](Cc2ccccc2)N2C(=O)[C@H](CC[C@H]2O)NC1=O [Molassamide, molassamide]: 6.067

I have 2 compounds here; please give me Mean (RFU/s) for each one.
1. CC=C1NC(=O)[C@@H](NC(=O)[C@@H](NC(=O)[C@@H]2CCCN2C(=O)CCC)[C@@H](C)OC(=O)C2CCCN2C(=O)CCC)[C@@H](C)OC(=O)[C@H](C(C)C)NC(=O)[C@H](Cc2ccc(O)cc2)N(C)C(=O)[C@H](Cc2ccccc2)N2C(=O)[C@H](CC[C@H]2O)NC1=O (stereo partly drawn) [Rivulariapeptolide 1155, rivulariapeptolide 1155]
2. CC=C1NC(=O)[C@@H](NC(=O)[C@@H](NC(=O)[C@@H]2CCCN2C(=O)CCC)[C@@H](C)O)[C@@H](C)OC(=O)[C@H](C(C)C)NC(=O)[C@H](Cc2ccc(O)cc2)N(C)C(=O)[C@H](Cc2ccccc2)N2C(=O)[C@H](CC[C@H]2O)NC1=O [Rivulariapeptolide 988, rivulariapeptolide 988]

Given back:
[6.159, 5.959]

* * *

target: Chymotrypsin (Bos taurus); construct: purchased Sigma-Aldrich; experiment: Chymotrypsin inhibition, fluorogenic substrate assay (Suc-Ala-Ala-Pro-Phe-AMC); format: biochemical; conditions: Chymotrypsin; inhibitor concentration 0.152416 nM; 40 min pre-incubation
Response key: yes means Mean (RFU/s) >= 5 RFU/s; no means Mean (RFU/s) < 5 RFU/s.

CC=C1NC(=O)[C@@H](NC(=O)[C@@H](NC(=O)[C@@H]2CCCN2C(=O)CCC)[C@@H](C)OC(=O)C2CCCN2C(=O)CCC)[C@@H](C)OC(=O)[C@H](C(C)C)NC(=O)[C@H](Cc2ccc(O)cc2)N(C)C(=O)[C@H](Cc2ccccc2)N2C(=O)[C@H](CC[C@H]2O)NC1=O (stereo partly drawn) [Rivulariapeptolide 1155, rivulariapeptolide 1155]: yes

# ---- query compound ----
Asked: Please check the record CC=C1NC(=O)[C@@H](NC(=O)[C@@H](NC(=O)[C@@H]2CCCN2C(=O)CCC)[C@@H](C)OC(=O)C2CCCN2C(=O)CCC)[C@@H](C)OC(=O)[C@H](C(C)C)NC(=O)[C@H](Cc2ccc(O)cc2)N(C)C(=O)[C@H](CC(C)C)N2C(=O)[C@H](CC[C@H]2O)NC1=O (stereo partly drawn) [Rivulariapeptolide 1121, rivulariapeptolide 1121] and state if its Mean (RFU/s) is at or above 5 RFU/s.
Given back: no

* * *

biological target: Chymotrypsin (Bos taurus); construct: purchased Sigma-Aldrich; assay: Chymotrypsin inhibition, fluorogenic substrate assay (Suc-Ala-Ala-Pro-Phe-AMC); assay type: biochemical; details: Chymotrypsin; inhibitor concentration 0.457247 nM; 40 min pre-incubation
MEASUREMENT NAME: Mean (RFU/s)
Answer format reminder: number followed by unit.

C/C=C1\NC(=O)[C@@H](NC(=O)[C@@H](NC(=O)[C@H](C)NC(=O)CCC)[C@@H](C)O)[C@@H](C)OC(=O)[C@H](C(C)C)NC(=O)[C@H](Cc2ccc(O)cc2)N(C)C(=O)[C@H](Cc2ccccc2)N2C(=O)[C@H](CC[C@H]2O)NC1=O [Molassamide, molassamide]: 5.172 RFU/s
CC=C1NC(=O)[C@@H](NC(=O)[C@@H](NC(=O)[C@@H]2CCCN2C(=O)CCC)[C@@H](C)OC(=O)C2CCCN2C(=O)CCC)[C@@H](C)OC(=O)[C@H](C(C)C)NC(=O)[C@H](Cc2ccc(O)cc2)N(C)C(=O)[C@H](Cc2ccccc2)N2C(=O)[C@H](CC[C@H]2O)NC1=O (stereo partly shown) [Rivulariapeptolide 1155, rivulariapeptolide 1155]: 5.411 RFU/s

I have 2 molecules here; please give me Mean (RFU/s) for each one.
1. C/C=C1\NC(=O)[C@@H](NC(=O)[C@@H](NC(=O)[C@H](C)NC(=O)CCC)[C@@H](C)O)[C@@H](C)OC(=O)[C@H](C(C)C)NC(=O)[C@H](Cc2ccc(O)c(Br)c2)N(C)C(=O)[C@H](Cc2ccccc2)N2C(=O)[C@H](CC[C@H]2O)NC1=O [Molassamide B, molassamide B]
2. CCCC(=O)N1CCCC1C(=O)NC(C(=O)NC1C(=O)NC(CC(C)C)C(=O)NC2CCC(O)N(C2=O)C(Cc2ccccc2)C(=O)N(C)C(Cc2ccc(O)cc2)C(=O)NC(C(C)C)C(=O)OC1C)C(C)OC(=O)C1CCCN1C(=O)CCC (stereo not shown) [Rivulariapeptolide 1185, rivulariapeptolide 1185]

Given back:
5.116 RFU/s
5.025 RFU/s
